Test system: Staphylococcal aureus Smith M P
Experiment: MIC reported in Table 2 beside the in vivo ED50
Format: cell-based
Conditions: Staphylococcus aureus, infecting strain S. aureus Smith MP
I'd be grateful if you could share measured MIC for these entries.
Dear colleague, please return just the value in µg/mL, with no unit written.

I am curious: what MIC value has been reported for "CN(C)c1cc(NC(=O)CN(O)C(C)(C)C)c(O)c2c1C[C@H]1C[C@H]3[C@H](N(C)C)C(O)=C(C(N)=O)C(=O)[C@@]3(O)C(O)=C1C2=O" ?
1

I am curious: what MIC value has been reported for CN(C)c1ccc(O)c2c1C[C@H]1C[C@H]3[C@H](N(C)C)C(O)=C(C(N)=O)C(=O)[C@@]3(O)C(O)=C1C2=O [Minocycline, reference compound] ?
0.25

I am curious: what MIC value has been reported for "CN(C)c1cc(NC(=O)CN(O)C2CCCCC2)c(O)c2c1C[C@H]1C[C@H]3[C@H](N(C)C)C(O)=C(C(N)=O)C(=O)[C@@]3(O)C(O)=C1C2=O" ?
1

I am curious: what MIC value has been reported for "CN(C)c1cc(NC(=O)CNOC(C)(C)C)c(O)c2c1C[C@H]1C[C@H]3[C@H](N(C)C)C(O)=C(C(N)=O)C(=O)[C@@]3(O)C(O)=C1C2=O" ?
4

I am curious: what MIC value has been reported for "CN(C)c1cc(NC(=O)CN2CCCCO2)c(O)c2c1C[C@H]1C[C@H]3[C@H](N(C)C)C(O)=C(C(N)=O)C(=O)[C@@]3(O)C(O)=C1C2=O" ?
2

* * *

Test system: Staphylococcal aureus Smith M P
Test: In vivo antibacterial evaluation, acute lethal infection in mice
Conditions: Mus musculus, iv, 168 h; single intraveneous dose; female CD-1 mice; 7 day survival ratios, 3 tests pooled; read-out: SIV* ED50
I'd be grateful if you could share measured ED50 for these entries.

I am curious: what ED50 value has been reported for CN(C)c1ccc(O)c2c1C[C@H]1C[C@H]3[C@H](N(C)C)C(O)=C(C(N)=O)C(=O)[C@@]3(O)C(O)=C1C2=O [Minocycline, reference compound] ?
0.37 to 0.42 mg/kg

I am curious: what ED50 value has been reported for CONCC(=O)Nc1cc(N(C)C)c2c(c1O)C(=O)C1=C(O)[C@]3(O)C(=O)C(C(N)=O)=C(O)[C@@H](N(C)C)[C@@H]3C[C@@H]1C2 [Example 5] ?
0.5 to 1 mg/kg

I am curious: what ED50 value has been reported for CON(C)CC(=O)Nc1cc(N(C)C)c2c(c1O)C(=O)C1=C(O)[C@]3(O)C(=O)C(C(N)=O)=C(O)[C@@H](N(C)C)[C@@H]3C[C@@H]1C2 [Example 7] ?
0.5 to 2 mg/kg

I am curious: what ED50 value has been reported for CN(C)c1cc(NC(=O)CNOC(C)(C)C)c(O)c2c1C[C@H]1C[C@H]3[C@H](N(C)C)C(O)=C(C(N)=O)C(=O)[C@@]3(O)C(O)=C1C2=O [Example 4] ?
0.25 to 1 mg/kg

* * *

I'd be grateful if you could share measured minimum inhibitory concentration (MIC) for these entries.
Tested on: E. coli GC2270 (tet(M))
Test: MIC broth microdilution, E. coli GC2270 (tet(M))
Assay type: cell-based
Conditions: MHBII, 18-22 hours at 35° C.
Form field (numeric): enter value without unit.

Missing value: minimum inhibitory concentration (MIC), E. coli GC2270 (tet(M)), entry "CC(C)N(O)CC(=O)Nc1cc(N(C)C)c2c(c1O)C(=O)C1=C(O)[C@]3(O)C(=O)C(C(N)=O)=C(O)[C@@H](N(C)C)[C@@H]3C[C@@H]1C2" . Fill in?
4

Missing value: minimum inhibitory concentration (MIC), E. coli GC2270 (tet(M)), entry "CN(C)c1cc(NC(=O)CN(O)C2CCCCC2)c(O)c2c1C[C@H]1C[C@H]3[C@H](N(C)C)C(O)=C(C(N)=O)C(=O)[C@@]3(O)C(O)=C1C2=O" . Fill in?
8

Missing value: minimum inhibitory concentration (MIC), E. coli GC2270 (tet(M)), entry "CN(C)c1cc(NC(=O)CNOC(C)(C)C)c(O)c2c1C[C@H]1C[C@H]3[C@H](N(C)C)C(O)=C(C(N)=O)C(=O)[C@@]3(O)C(O)=C1C2=O" . Fill in?
8

Missing value: minimum inhibitory concentration (MIC), E. coli GC2270 (tet(M)), entry CN(C)c1ccc(O)c2c1C[C@H]1C[C@H]3[C@H](N(C)C)C(O)=C(C(N)=O)C(=O)[C@@]3(O)C(O)=C1C2=O [Minocycline, reference compound] . Fill in?
64

Missing value: minimum inhibitory concentration (MIC), E. coli GC2270 (tet(M)), entry "CN(C)c1cc(NC(=O)CN(O)Cc2ccccc2)c(O)c2c1C[C@H]1C[C@H]3[C@H](N(C)C)C(O)=C(C(N)=O)C(=O)[C@@]3(O)C(O)=C1C2=O" . Fill in?
16

Missing value: minimum inhibitory concentration (MIC), E. coli GC2270 (tet(M)), entry "CONCC(=O)Nc1cc(N(C)C)c2c(c1O)C(=O)C1=C(O)[C@]3(O)C(=O)C(C(N)=O)=C(O)[C@@H](N(C)C)[C@@H]3C[C@@H]1C2" . Fill in?
4

* * *

Tested on: E. coli GC2203 (ATCC Control)
Assay: MIC broth microdilution, E. coli GC2203 (ATCC Control)
Type: cell-based
Conditions: MHBII, 18-22 hours at 35° C.
I'd be grateful if you could share measured minimum inhibitory concentration (MIC) for these entries.
Form field (numeric): enter value without unit.

I am curious: what minimum inhibitory concentration (MIC) value has been reported for CN(C)c1cc(NC(=O)CNOC(C)(C)C)c(O)c2c1C[C@H]1C[C@H]3[C@H](N(C)C)C(O)=C(C(N)=O)C(=O)[C@@]3(O)C(O)=C1C2=O [Example 4] ?
8

I am curious: what minimum inhibitory concentration (MIC) value has been reported for CN(C)c1cc(NC(=O)CN(O)Cc2ccccc2)c(O)c2c1C[C@H]1C[C@H]3[C@H](N(C)C)C(O)=C(C(N)=O)C(=O)[C@@]3(O)C(O)=C1C2=O [Example 6] ?
16

I am curious: what minimum inhibitory concentration (MIC) value has been reported for CN(C)c1cc(NC(=O)CN(O)C(C)(C)C)c(O)c2c1C[C@H]1C[C@H]3[C@H](N(C)C)C(O)=C(C(N)=O)C(=O)[C@@]3(O)C(O)=C1C2=O [Example 3] ?
32

I am curious: what minimum inhibitory concentration (MIC) value has been reported for CC(C)N(O)CC(=O)Nc1cc(N(C)C)c2c(c1O)C(=O)C1=C(O)[C@]3(O)C(=O)C(C(N)=O)=C(O)[C@@H](N(C)C)[C@@H]3C[C@@H]1C2 [Example 2] ?
2

* * *

System: Staphylococcal aureus Smith M P
Assay: MIC reported in Table 2 beside the in vivo ED50
Assay type: cell-based
Conditions: Staphylococcus aureus, infecting strain S. aureus Smith MP
property_name: MIC (µg/mL)
Dear colleague, please return just the value in µg/mL, with no unit written.

Missing value: MIC, Staphylococcal aureus Smith M P, entry CON(C)CC(=O)Nc1cc(N(C)C)c2c(c1O)C(=O)C1=C(O)[C@]3(O)C(=O)C(C(N)=O)=C(O)[C@@H](N(C)C)[C@@H]3C[C@@H]1C2 [Example 7] . Fill in?
2

Missing value: MIC, Staphylococcal aureus Smith M P, entry CONCC(=O)Nc1cc(N(C)C)c2c(c1O)C(=O)C1=C(O)[C@]3(O)C(=O)C(C(N)=O)=C(O)[C@@H](N(C)C)[C@@H]3C[C@@H]1C2 [Example 5] . Fill in?
1

Missing value: MIC, Staphylococcal aureus Smith M P, entry CC(C)N(O)CC(=O)Nc1cc(N(C)C)c2c(c1O)C(=O)C1=C(O)[C@]3(O)C(=O)C(C(N)=O)=C(O)[C@@H](N(C)C)[C@@H]3C[C@@H]1C2 [Example 2] . Fill in?
1

Missing value: MIC, Staphylococcal aureus Smith M P, entry CN(C)c1cc(NC(=O)CN(O)Cc2ccccc2)c(O)c2c1C[C@H]1C[C@H]3[C@H](N(C)C)C(O)=C(C(N)=O)C(=O)[C@@]3(O)C(O)=C1C2=O [Example 6] . Fill in?
2

* * *

I'd be grateful if you could share measured minimum inhibitory concentration (MIC) for these entries.
Test system: S. aureus GC4536 (Smith MP -In Vivo)
Assay: MIC broth microdilution, S. aureus GC4536 (Smith MP -In Vivo)
Assay type: cell-based
Settings: MHBII, 18-22 hours at 35° C.

I am curious: what minimum inhibitory concentration (MIC) value has been reported for "CN(C)c1cc(NC(=O)CN(O)Cc2ccccc2)c(O)c2c1C[C@H]1C[C@H]3[C@H](N(C)C)C(O)=C(C(N)=O)C(=O)[C@@]3(O)C(O)=C1C2=O" ?
2

I am curious: what minimum inhibitory concentration (MIC) value has been reported for "CC(C)N(O)CC(=O)Nc1cc(N(C)C)c2c(c1O)C(=O)C1=C(O)[C@]3(O)C(=O)C(C(N)=O)=C(O)[C@@H](N(C)C)[C@@H]3C[C@@H]1C2" ?
4

I am curious: what minimum inhibitory concentration (MIC) value has been reported for "CON(C)CC(=O)Nc1cc(N(C)C)c2c(c1O)C(=O)C1=C(O)[C@]3(O)C(=O)C(C(N)=O)=C(O)[C@@H](N(C)C)[C@@H]3C[C@@H]1C2" ?
2
